- Measured On: steroid sulphatase (STS) (Homo sapiens, UniProt P08842)
- Construct: Intact monolayers of JEG3 cells in triplicate 25 cm^2 tissue culture flasks; host or cells: JEG3 choriocarcinoma cells
- Sequence (P08842 22-583): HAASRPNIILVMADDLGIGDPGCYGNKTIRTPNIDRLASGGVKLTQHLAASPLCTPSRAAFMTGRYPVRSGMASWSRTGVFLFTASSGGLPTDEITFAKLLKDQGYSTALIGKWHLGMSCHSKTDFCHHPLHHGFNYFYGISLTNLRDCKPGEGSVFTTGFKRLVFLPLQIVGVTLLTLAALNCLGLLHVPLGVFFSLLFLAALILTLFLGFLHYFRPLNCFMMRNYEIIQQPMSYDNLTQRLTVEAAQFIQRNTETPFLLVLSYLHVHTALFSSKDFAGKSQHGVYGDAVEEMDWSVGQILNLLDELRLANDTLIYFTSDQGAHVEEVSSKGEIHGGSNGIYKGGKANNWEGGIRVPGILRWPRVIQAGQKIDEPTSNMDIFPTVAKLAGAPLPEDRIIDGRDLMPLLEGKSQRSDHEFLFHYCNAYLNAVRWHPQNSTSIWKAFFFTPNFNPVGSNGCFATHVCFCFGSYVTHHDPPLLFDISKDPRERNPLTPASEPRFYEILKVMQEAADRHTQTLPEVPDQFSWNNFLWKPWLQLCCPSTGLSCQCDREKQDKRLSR
- Test Protocol: Inhibition of steroid sulphatase activity in JEG3 cells (Protocol 1)
- Format: cell-based
- Test Parameters: JEG-3, read-out: % STS INHIBITION (10 μM)
Here the recorded inhibition at 10 µM is given for each entry.
Unit % implied. Number only.

Please review the entries below; each comes with its answer.
chemical_structure=CC(C)(C#N)c1cc(CSc2ccc(OS(N)(=O)=O)c(Cl)c2)cc(Cn2cncn2)c1 recorded_endpoint="inhibition at 10 µM" unit_of_measurement=% recorded_number=82.3
chemical_structure=N#CC1(c2cc(CSc3ccc(OS(N)(=O)=O)c(Cl)c3)cc(Cn3cncn3)c2)CCC1 recorded_endpoint="inhibition at 10 µM" unit_of_measurement=% recorded_number=75.3

Now examine the next entry.
# input State, in one line, measured inhibition at 10 µM of `CC(C)(C#N)c1cc(Cn2cncn2)cc(-c2ccc(OS(N)(=O)=O)cc2)c1`
# output 24.4

* * *

- Measured On: aromatase (Homo sapiens)
- Construct: Intact monolayers of JEG3 cells (2.5×10^6 cells) in triplicate 25 cm^2 tissue culture flasks; host or cells: JEG3 choriocarcinoma cells
- Sequence (P11511 1-503): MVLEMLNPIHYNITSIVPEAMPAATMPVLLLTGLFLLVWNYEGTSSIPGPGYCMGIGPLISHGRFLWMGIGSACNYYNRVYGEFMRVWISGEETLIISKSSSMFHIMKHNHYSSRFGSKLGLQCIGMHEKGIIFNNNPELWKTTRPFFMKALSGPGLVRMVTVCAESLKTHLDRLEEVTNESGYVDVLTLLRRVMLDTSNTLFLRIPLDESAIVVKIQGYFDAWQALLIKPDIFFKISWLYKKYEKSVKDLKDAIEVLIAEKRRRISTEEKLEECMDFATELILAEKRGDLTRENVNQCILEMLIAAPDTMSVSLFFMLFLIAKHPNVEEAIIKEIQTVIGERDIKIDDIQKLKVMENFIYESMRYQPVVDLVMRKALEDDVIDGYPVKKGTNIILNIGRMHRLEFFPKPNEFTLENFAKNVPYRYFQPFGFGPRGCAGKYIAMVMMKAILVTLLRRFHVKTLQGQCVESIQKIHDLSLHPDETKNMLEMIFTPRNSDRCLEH
- Test Protocol: Aromatase activity in JEG3 choriocarcinoma cells (Protocol 6)
- Assay type: cell-based
- Test Parameters: JEG3 cells
Recorded Endpoint: IC50 (nM)
Unit nM implied. Number only.

chemical_structure=CC(C)(C#N)c1cc(CSc2ccc(OS(N)(=O)=O)cc2)cc(Cn2cncn2)c1 recorded_endpoint=IC50 recorded_number=3.5

Now examine the next entry.
# input State, in one line, measured IC50 of `CC(C)(C#N)c1cc(CSc2ccc(O)cc2)cc(Cn2cncn2)c1`
# output 1
